- target-desc: human orexin 2 receptors (Homo sapiens)
- Construct: expressed in transfected cells; host or cells: CHO cells (membranes)
- Sequence (O43614 whole entry): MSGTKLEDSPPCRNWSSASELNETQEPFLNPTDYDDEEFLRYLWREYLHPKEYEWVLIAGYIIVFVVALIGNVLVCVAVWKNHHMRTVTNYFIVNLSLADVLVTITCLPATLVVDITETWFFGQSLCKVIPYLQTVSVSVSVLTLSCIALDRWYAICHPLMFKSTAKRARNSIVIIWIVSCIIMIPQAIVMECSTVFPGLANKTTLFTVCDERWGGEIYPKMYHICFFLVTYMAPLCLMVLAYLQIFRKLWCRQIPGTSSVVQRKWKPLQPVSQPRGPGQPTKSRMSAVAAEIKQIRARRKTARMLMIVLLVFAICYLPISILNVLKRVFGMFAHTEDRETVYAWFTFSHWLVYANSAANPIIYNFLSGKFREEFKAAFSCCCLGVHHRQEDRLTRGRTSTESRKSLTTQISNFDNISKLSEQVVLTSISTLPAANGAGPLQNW
- assay-method-text: in vitro binding test: displacement of radioiodinated orexin A, membranes of CHO cells
- condition-notes: Table 1; assay not given; read-out: IC50 OX 2
Counter-ions that a name gives are not always drawn.
Entries and their IC50 values follow.

- compound: "COc1ccc(S(=O)(=O)N(c2c(Cc3c(F)cccc3F)cccc2OC)[C@H]2CCNC2)cc1OC (atropisomer, axis not shown) [Compound 6, hydrochloride]"
  IC50 [nM]: 9.1
- compound: "COc1ccc(S(=O)(=O)N(c2c(Cc3c(F)cccc3F)cc(Cl)cc2OC)[C@H]2CCNC2)cc1OC [Compound 18, hydrochloride]"
  IC50 [nM]: 12
- compound: "COc1ccc(S(=O)(=O)N(c2c(Cc3c(F)cccc3F)cccc2OC)[C@H]2CCC[C@@H]2N)cc1OC [Compound 14, hydrochloride]"
  IC50 [nM]: 10
- compound: "COc1ccc(S(=O)(=O)N(c2c(Cc3ccccc3Cl)cccc2OC)[C@H]2CCNC2)cc1OC [Compound 11, hydrochloride]"
  IC50 [nM]: 7.2
